B1: TPR 5TU (parent)
chain: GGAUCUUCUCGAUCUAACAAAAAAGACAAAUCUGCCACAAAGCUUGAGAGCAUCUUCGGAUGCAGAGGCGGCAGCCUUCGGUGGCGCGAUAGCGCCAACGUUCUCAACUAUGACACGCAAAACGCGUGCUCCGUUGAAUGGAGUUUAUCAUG

- Variants of: B1
- test-description: polymerase ribozyme fitness, log enrichment relative to wild type (log ratio); higher = more active; in vitro selection for triplet polymerase activity
This sample holds only a part of the variants without activity.
parameter-measured: polymerase ribozyme fitness (log ratio)

q: Would you kindly share the measured polymerase ribozyme fitness (log ratio) for U61A C85U C87A C118G U134A ?
a: ≤ -4.2

q: What does the record list as polymerase ribozyme fitness (log ratio) for A19C C54U G67U C85A ?
a: ≤ -4.2

q: Which value of polymerase ribozyme fitness (log ratio) has been reported for A19U C27A A91U G94U G126U G141A G143C in the records?
a: ≤ -4.2

q: # query: polymerase ribozyme fitness (log ratio) of entry U15A A22G C36A C72U C85U C132U
a: ≤ -4.2

q: Look up polymerase ribozyme fitness (log ratio): C8U A21C G25U A97U
a: ≤ -4.2

q: Need polymerase ribozyme fitness (log ratio) of A40U U56A G80C G84U C99A G143U , thanks.
a: ≤ -4.2

q: I would be grateful if you could share the reported polymerase ribozyme fitness (log ratio) for U33G G46A A49C U77C A98U C99U G152U .
a: ≤ -4.2

q: Can you look up the measured polymerase ribozyme fitness (log ratio) of A37U U55G A60G C85G A107C C131U for me?
a: ≤ -4.2

q: GET /values?readout=polymerase ribozyme fitness (log ratio)&item= A24U G25C A28G A30G A49U G83A C87A
a: ≤ -4.2

q: What value of polymerase ribozyme fitness (log ratio) has been reported for the following variant? C36A U78A
a: ≤ -4.2

q: Entry C54U G65U A73U A91U C108G has what polymerase ribozyme fitness (log ratio)?
a: ≤ -4.2

q: # lookup: polymerase ribozyme fitness (log ratio) of U4C A19G C76G G86U A89G A106C U134G
a: ≤ -4.2

q: Sample U7G A47C A49U G86U C99U — what was its polymerase ribozyme fitness (log ratio)?
a: ≤ -4.2

q: Recorded polymerase ribozyme fitness (log ratio) for A41C A106C , please?
a: -0.881

q: Which polymerase ribozyme fitness (log ratio) value is on record for A122C G126A ?
a: -0.186

q: Look up polymerase ribozyme fitness (log ratio) for this variant: A52U G86U C105U
a: -1.83

q: Report polymerase ribozyme fitness (log ratio) for U56C G59A G92U U135A please.
a: -2.19

q: Report polymerase ribozyme fitness (log ratio) for A12C A66G A91U please.
a: ≤ -4.2

q: # input variant: U78G C85U G126U ; wanted: its polymerase ribozyme fitness (log ratio)
a: ≤ -4.2

q: What value of polymerase ribozyme fitness (log ratio) has been reported for the following variant? U13A A29U U44A C72G C96U A97U
a: ≤ -4.2

q: For the variant shown here, A12C A20G G25A A30G U44A A89G U145G , give the reported polymerase ribozyme fitness (log ratio).
a: ≤ -4.2

q: Which polymerase ribozyme fitness (log ratio) is listed for U45G A66U U77C A107G G117U ?
a: ≤ -4.2

q: Need polymerase ribozyme fitness (log ratio) of C63G , thanks.
a: 0.136

q: Fill in: polymerase ribozyme fitness (log ratio) of C38U U55G A119G is ___
a: -0.675

q: Entry under review: C79A U139C A142G U148A . Reported polymerase ribozyme fitness (log ratio)?
a: ≤ -4.2

q: Data request, read-out polymerase ribozyme fitness (log ratio), for A16U A39C A49C C96U C125U
a: ≤ -4.2

q: Consider the variant shown here: C10A A12G A22G U56A C85G What is its recorded polymerase ribozyme fitness (log ratio)?
a: ≤ -4.2

q: Name the reported polymerase ribozyme fitness (log ratio) value associated with the variant U6C G11A A37G A52G G86A G100A
a: ≤ -4.2

q: Sample C76G G88A G136A U139G — what was its polymerase ribozyme fitness (log ratio)?
a: ≤ -4.2

q: Could you share which polymerase ribozyme fitness (log ratio) value was measured for A37C G92C G124C ?
a: -2.65

q: Need polymerase ribozyme fitness (log ratio), item A49G G74C U101G G112C A122U U127A A138C
a: ≤ -4.2

q: For the variant U44A U144C , what polymerase ribozyme fitness (log ratio) is on record?
a: -3.62

q: Quick one: polymerase ribozyme fitness (log ratio) of U13C U90G C116A ?
a: -4.13

q: Dear colleague, I am looking for the recorded polymerase ribozyme fitness (log ratio) of the following variant: U4A A19C A41U U56C G124A G143A
a: -3.84

q: Look at this variant and give its reported polymerase ribozyme fitness (log ratio). A20U A23G G88A C99G C149G
a: ≤ -4.2

q: Form field: reported polymerase ribozyme fitness (log ratio) of U15G A39G U53A
a: -4.01

q: Reported polymerase ribozyme fitness (log ratio), variant A60C U61G G92A A110U : ____
a: -3.93

q: Quick one: polymerase ribozyme fitness (log ratio) of A16U G143C ?
a: -3.63

q: So what's the measured polymerase ribozyme fitness (log ratio) for this one? G59A U78C G88U C96U U109G G140C
a: ≤ -4.2

q: Find the recorded polymerase ribozyme fitness (log ratio) belonging to A66G C105U and report it.
a: -3.63

q: Give the measured polymerase ribozyme fitness (log ratio) of A12G C36A U55G G94A G141C U148G .
a: ≤ -4.2

q: Data request, read-out polymerase ribozyme fitness (log ratio), for C38U U56A A147C
a: -0.21

q: What polymerase ribozyme fitness (log ratio) value was documented for this variant, C51U C95U ?
a: -1.69

q: Sample A12C A20G A37C C51U G58C A91C — what was its polymerase ribozyme fitness (log ratio)?
a: ≤ -4.2

q: Return reported polymerase ribozyme fitness (log ratio); argument: U44G G48U G86A G100C C105A G126A U134C
a: ≤ -4.2

q: Could you share which polymerase ribozyme fitness (log ratio) value was measured for C8G A23U A30U G42C G83C A97U ?
a: ≤ -4.2

q: Name the reported polymerase ribozyme fitness (log ratio) value associated with the variant C96G A107G
a: ≤ -4.2

q: Return reported polymerase ribozyme fitness (log ratio); argument: A22U C35U A47U G59U G67A C132A G136U
a: ≤ -4.2

q: Given the entry A29G A47U A49U G94A C131U , report its measured polymerase ribozyme fitness (log ratio).
a: ≤ -4.2

q: What value of measured polymerase ribozyme fitness (log ratio) is listed for C36U G50U C54U C99U ?
a: -4.14

q: Can you share its polymerase ribozyme fitness (log ratio)? I mean this variant: A24C G50C C96G A110U
a: ≤ -4.2

q: What value of polymerase ribozyme fitness (log ratio) has been reported for the following variant? A47G G50A C85U C99A G124C U127G
a: ≤ -4.2

q: Item under review: A16U C18A A40G G74A G80C G83U G86A A97U . Reported polymerase ribozyme fitness (log ratio)?
a: ≤ -4.2

q: What measured polymerase ribozyme fitness (log ratio) goes with A20G A22U G70U C85G A110U A121C ?
a: ≤ -4.2

q: Fill in the blank: the reported polymerase ribozyme fitness (log ratio) of C57A A91G is ____.
a: -2.76

q: Can you look up the measured polymerase ribozyme fitness (log ratio) of A17G A19U U53A U56G A60U C69G U111G A142G for me?
a: ≤ -4.2

q: Record request: polymerase ribozyme fitness (log ratio) value, item U56G C108A
a: ≤ -4.2

q: Consider the variant A28G C36U and give its measured polymerase ribozyme fitness (log ratio).
a: ≤ -4.2

q: Report polymerase ribozyme fitness (log ratio) for U9C C57G G140C please.
a: ≤ -4.2

q: I have this variant here, A24C A28U A37U U134C , and I need its recorded polymerase ribozyme fitness (log ratio).
a: ≤ -4.2

q: Which measured polymerase ribozyme fitness (log ratio) value corresponds to C108U C132A U139A ?
a: ≤ -4.2

q: Query: polymerase ribozyme fitness (log ratio); subject: C93G U145G
a: -2.53

q: # lookup: polymerase ribozyme fitness (log ratio) of U53G U55A U78A C93U A142C U148C
a: ≤ -4.2

q: Requested field: polymerase ribozyme fitness (log ratio). Item: G42C C54G A91U G124A C131G
a: ≤ -4.2

q: Endpoint output: polymerase ribozyme fitness (log ratio) of A52G U53C G58A A142C . Value?
a: -3.35

q: Which value of polymerase ribozyme fitness (log ratio) has been reported for C96A G124A in the records?
a: -0.328

q: Report polymerase ribozyme fitness (log ratio) for U55A C63G A121U please.
a: -0.282

q: GET /values?readout=polymerase ribozyme fitness (log ratio)&item= C14G A21U A52G C85A C118G G128A G141C
a: ≤ -4.2

q: Quick one: polymerase ribozyme fitness (log ratio) of G48A C96U A98G ?
a: -0.496

q: Which polymerase ribozyme fitness (log ratio) is reported for this variant? A39U C76A G83U C125U
a: ≤ -4.2

q: Data request, read-out polymerase ribozyme fitness (log ratio), for A21C G88A U104G A107U
a: ≤ -4.2
